Known pIC50 of a selection of compounds
# Tested on: SK-OV-3
# measurement_protocol: Cytotoxicity assay (cell titer-glo and calcein AM), SK-OV-3
# study_conditions: read-out: Cytotoxicity IC50, SK-OV-3, calcein; SK-OV-3; calcein AM readout; % error in parentheses
pIC50: −log10 of the molar value.
quantity_name: pIC50

[[record]]
compound = "COc1cc2c(c(OC)c1OC)-c1ccc(OC)c(=O)cc1[C@@H](NC(=O)CN(OC)[C@@H]1O[C@H](CO)[C@@H](O)[C@H](O)[C@H]1F)CC2 [Col34, 2-fluoro-2-deoxy-D-glucoside]"
experimental_target = "SK-OV-3"
cmp = "="
observed_result = 6.10

[[record]]
compound = "CCCCCCCCCC(=O)N[C@@H]1[C@@H](O)[C@H](N(CC(=O)N[C@H]2CCc3cc(OC)c(OC)c(OC)c3-c3ccc(OC)c(=O)cc32)OC)O[C@H](CO)[C@H]1O [Col60, 3-deoxy-3-N-decanoyl-D-glucosaminoside]"
experimental_target = "SK-OV-3"
cmp = "="
observed_result = 5.38

[[record]]
compound = "COc1cc2c(c(OC)c1OC)-c1ccc(OC)c(=O)cc1C(NC(=O)CN(OC)C1OCC(O)C(O)C1O)CC2 [Col25, L-arabinoside]"
experimental_target = "SK-OV-3"
cmp = "="
observed_result = 5.60

[[record]]
compound = "COc1cc2c(c(OC)c1OC)-c1ccc(OC)c(=O)cc1C(NC(=O)CN(OC)C1OCC(O)C(O)C1O)CC2 [Col17, L-xyloside]"
experimental_target = "SK-OV-3"
cmp = "<"
observed_result = 5.00

[[record]]
compound = "COc1cc2c(c(OC)c1OC)-c1ccc(OC)c(=O)cc1[C@@H](NC(=O)CN(OC)[C@@H]1O[C@H](CO)[C@@H](O[C@H]3O[C@H](CO)[C@@H](O)[C@H](O)[C@H]3O)[C@H](O)[C@H]1O)CC2 [Col38, D-maltoside]"
experimental_target = "SK-OV-3"
cmp = "="
observed_result = 6.50

[[record]]
compound = "COc1cc2c(c(OC)c1OC)-c1ccc(OC)c(=O)cc1C(NC(=O)CN(OC)C1OC(C)C(O)C(O)C1O)CC2 [Col37, L-rhamnoside]"
experimental_target = "SK-OV-3"
cmp = "<"
observed_result = 5.00

[[record]]
compound = "COc1cc2c(c(OC)c1OC)-c1ccc(OC)c(=O)cc1[C@@H](NC(=O)CN(OC)[C@@H]1O[C@H](CO)[C@@H](O[C@H]3O[C@H](CO)[C@@H](O[C@H]4O[C@H](CO)[C@@H](O)[C@H](O)[C@H]4O)[C@H](O)[C@H]3O)[C@H](O)[C@H]1O)CC2 [Col13, maltotrioside]"
experimental_target = "SK-OV-3"
cmp = "<"
observed_result = 5.00

[[record]]
compound = "COc1cc2c(c(OC)c1OC)-c1ccc(OC)c(=O)cc1[C@@H](NC(=O)CN(OC)[C@@H]1O[C@H](C)[C@@H](O)[C@H](O)[C@H]1O)CC2 [Col2, 6-deoxy-D-glucoside]"
experimental_target = "SK-OV-3"
cmp = "<"
observed_result = 5.00

[[record]]
compound = "COc1cc2c(c(OC)c1OC)-c1ccc(OC)c(=O)cc1[C@@H](NC(=O)CN(OC)[C@@H]1O[C@H](CO)[C@@H](O)[C@H](F)[C@H]1O)CC2 [Col33, 3-fluoro-3-deoxy-D-glucoside]"
experimental_target = "SK-OV-3"
cmp = "="
observed_result = 5.72

[[record]]
compound = "COc1cc2c(c(OC)c1OC)-c1ccc(OC)c(=O)cc1[C@@H](NC(=O)CN(OC)[C@@H]1O[C@H](CO)[C@H](O)[C@H](O)[C@H]1NC(C)=O)CC2 [Col28, N-acetyl-D-galactosaminoside]"
experimental_target = "SK-OV-3"
cmp = "="
observed_result = 5.14

